The measurements presented in this section are drawn from patent US20240391954A1.

Here the recorded % max activation is given for each entry.
TESTED SYSTEM: human MC3R (human, UniProt P41968 1-323)
Sequence (P41968 whole entry): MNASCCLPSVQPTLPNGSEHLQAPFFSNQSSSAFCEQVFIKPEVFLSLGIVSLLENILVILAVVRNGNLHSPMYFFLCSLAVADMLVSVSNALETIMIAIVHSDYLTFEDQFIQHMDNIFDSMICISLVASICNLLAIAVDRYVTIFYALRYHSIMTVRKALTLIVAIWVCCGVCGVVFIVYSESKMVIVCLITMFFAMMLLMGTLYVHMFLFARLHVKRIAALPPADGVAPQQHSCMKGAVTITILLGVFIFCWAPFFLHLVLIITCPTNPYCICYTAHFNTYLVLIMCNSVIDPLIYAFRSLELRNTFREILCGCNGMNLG
EXPERIMENTAL DETAILS: cell-based or functional assay
Positions of bridges follow the written chain, without caps; N, C: chain ends. Non-standard residues stand in square brackets, D forms with d. dPhe(4-Br) = N[C@H](Cc1ccc(Br)cc1)C(=O)O; dPhe(4-F) = N[C@H](Cc1ccc(F)cc1)C(=O)O; Cit = NC(=O)NCCC[C@H](N)C(=O)O
Just the number in %, nothing appended.

Recorded results for 2 binders are shown here.
BINDER	REPORTED METRIC	NUMERIC READOUT
Ac-RC[dA]R[dPhe(4-F)]R[dW]C-NH2 (disulfide 2-8) [CTX-1236]	% max activation	66
Ac-RC[dA]R[dPhe(4-Br)][Cit][dW]C-NH2 (disulfide 2-8; SMILES CC(=O)N[C@@H](CCCNC(=N)N)C(=O)N[C@H]1CSSC[C@@H](C(N)=O)NC(=O)[C@@H](Cc2c[nH]c3ccccc23)NC(=O)[C@H](CCCNC(N)=O)NC(=O)[C@@H](Cc2ccc(Br)cc2)NC(=O)[C@H](CCCNC(=N)N)NC(=O)[C@@H](C)NC1=O) [CTX-1253]	% max activation	9.2

Next binder, % max activation to be filled in.
// query Item Ac-RC[dA]R[dPhe(4-Br)]R[dW]CRFG-OH (disulfide 2-8; SMILES CC(=O)N[C@@H](CCCNC(=N)N)C(=O)N[C@H]1CSSC[C@@H](C(=O)N[C@@H](CCCNC(=N)N)C(=O)N[C@@H](Cc2ccccc2)C(=O)NCC(=O)O)NC(=O)[C@@H](Cc2c[nH]c3ccccc23)NC(=O)[C@H](CCCNC(=N)N)NC(=O)[C@@H](Cc2ccc(Br)cc2)NC(=O)[C@H](CCCNC(=N)N)NC(=O)[C@@H](C)NC1=O) [CTX-1219] : provide % max activation
// result 20
